The measured values listed here are drawn from patent US10508107B2.

# experimental system: human TAAR1 (Homo sapiens (Human))
# protocol description: cAMP functional assay in HEK293 cells expressing human TAAR1
# Assay type: cell-based
# condition description: cAMP, HEK293 cells expressing human TAAR1; read-out: hTAAR1 EC50
just bin them by EC50: low bin (below 100 nM), mid bin (100 nM to below 700 nM), high bin (700 nM or more)

Request: Which of the defined bands does the recorded EC50 of O=C(Nc1ccc([C@H]2CNCCO2)cc1)c1ccnc(Cl)c1 sit within?
Response: low bin

Request: Sort O=C(Nc1ccc([C@H]2CNCCO2)cc1)c1ccc(C(F)(F)F)nc1 into one of the categories.
Response: mid bin

Request: Tag the class for Cc1cc(C(=O)Nc2ccc([C@H]3CNCCO3)cc2)cc(Cl)n1
Response: mid bin

Request: Band for O=C(Nc1ccc([C@H]2CNCCO2)cc1)c1csc(-c2ccccc2)n1 ?
Response: mid bin

Request: Pick a category. Item: O=C(Nc1ccc([C@H]2CNCCO2)cc1)c1cncc(Cl)c1
Response: mid bin

Request: Entry O=C(Nc1ccc([C@H]2CNCCO2)cc1)c1cc(Cl)nc(Cl)c1 belongs to which category?
Response: low bin

Request: # classify by EC50 band: Cc1cc(C(=O)Nc2ccc([C@H]3CNCCO3)cc2)cc(C)n1
Response: high bin

Request: Sort O=C(Nc1ccc([C@H]2CNCCO2)cc1)c1ccc(Cl)cn1 into one of the categories.
Response: mid bin

Request: Which category does the recorded EC50 put O=C(Nc1ccc([C@H]2CNCCO2)cc1)c1ccc(OCC(F)(F)F)nc1 in?
Response: low bin

Request: Classify this compound: O=C(Nc1ccc([C@H]2CNCCO2)cc1)c1cnc(Cl)c(Cl)c1
Response: mid bin

Request: Would you mind sorting O=C(Nc1ccc([C@H]2CNCCO2)cc1)c1ccn(-c2ccccc2)n1 into the appropriate category?
Response: high bin

Request: Please let me know in which category the item Cc1cc(C(=O)Nc2ccc([C@H]3CNCCO3)cc2)ccn1 belongs.
Response: mid bin

Request: Please classify: O=C(Nc1ccc([C@H]2CNCCO2)cc1)c1cnc(-c2ccccc2)s1
Response: low bin

Request: In plain terms, what class is O=C(Nc1ccc([C@H]2CNCCO2)cc1)c1coc(-c2ccccc2)n1 ?
Response: mid bin

Request: Would you mind sorting Cc1nc(C(=O)Nc2ccc([C@H]3CNCCO3)cc2)cs1 into the appropriate category?
Response: high bin

Request: Looking at O=C(Nc1ccc([C@H]2CNCCO2)cc1)c1ccc(Cl)nc1 , which class would you pick?
Response: low bin

Request: Bin this entry: Cc1c(C(=O)Nc2ccc([C@H]3CNCCO3)cc2)n[nH]c1-c1ccccc1
Response: mid bin

Request: Bin? N#Cc1ccc(C(=O)Nc2ccc([C@H]3CNCCO3)cc2)cn1
Response: mid bin

----------
# experimental system: human TAAR1 (Homo sapiens (Human), UniProt Q96RJ0)
# Sequence (Q96RJ0 whole entry): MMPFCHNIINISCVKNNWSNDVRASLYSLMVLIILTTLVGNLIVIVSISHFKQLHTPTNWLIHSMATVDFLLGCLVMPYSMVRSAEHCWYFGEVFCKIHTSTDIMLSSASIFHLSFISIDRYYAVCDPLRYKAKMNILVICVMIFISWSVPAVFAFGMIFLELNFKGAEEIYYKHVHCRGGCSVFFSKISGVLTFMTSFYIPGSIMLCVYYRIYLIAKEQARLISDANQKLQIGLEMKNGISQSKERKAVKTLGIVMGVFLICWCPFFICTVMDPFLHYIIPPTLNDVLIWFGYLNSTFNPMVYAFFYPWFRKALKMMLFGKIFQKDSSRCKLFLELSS
# protocol description: cAMP functional assay in HEK293 cells expressing human TAAR1
# Assay type: cell-based
# condition description: cAMP, HEK293 cells expressing human TAAR1; listed as example 17; read-out: hTAAR1 EC50
parameter: EC50 (nM)
Note: unit nM is implicit; provide only the numeric part.

Request: So what's the measured EC50 for this one? Cc1cc(C(=O)Nc2ccc([C@H]3CNCCO3)cc2)ccn1
Response: 673

----------
# experimental system: hERG potassium channel (Homo sapiens (Human))
# Sequence (Q12809 whole entry): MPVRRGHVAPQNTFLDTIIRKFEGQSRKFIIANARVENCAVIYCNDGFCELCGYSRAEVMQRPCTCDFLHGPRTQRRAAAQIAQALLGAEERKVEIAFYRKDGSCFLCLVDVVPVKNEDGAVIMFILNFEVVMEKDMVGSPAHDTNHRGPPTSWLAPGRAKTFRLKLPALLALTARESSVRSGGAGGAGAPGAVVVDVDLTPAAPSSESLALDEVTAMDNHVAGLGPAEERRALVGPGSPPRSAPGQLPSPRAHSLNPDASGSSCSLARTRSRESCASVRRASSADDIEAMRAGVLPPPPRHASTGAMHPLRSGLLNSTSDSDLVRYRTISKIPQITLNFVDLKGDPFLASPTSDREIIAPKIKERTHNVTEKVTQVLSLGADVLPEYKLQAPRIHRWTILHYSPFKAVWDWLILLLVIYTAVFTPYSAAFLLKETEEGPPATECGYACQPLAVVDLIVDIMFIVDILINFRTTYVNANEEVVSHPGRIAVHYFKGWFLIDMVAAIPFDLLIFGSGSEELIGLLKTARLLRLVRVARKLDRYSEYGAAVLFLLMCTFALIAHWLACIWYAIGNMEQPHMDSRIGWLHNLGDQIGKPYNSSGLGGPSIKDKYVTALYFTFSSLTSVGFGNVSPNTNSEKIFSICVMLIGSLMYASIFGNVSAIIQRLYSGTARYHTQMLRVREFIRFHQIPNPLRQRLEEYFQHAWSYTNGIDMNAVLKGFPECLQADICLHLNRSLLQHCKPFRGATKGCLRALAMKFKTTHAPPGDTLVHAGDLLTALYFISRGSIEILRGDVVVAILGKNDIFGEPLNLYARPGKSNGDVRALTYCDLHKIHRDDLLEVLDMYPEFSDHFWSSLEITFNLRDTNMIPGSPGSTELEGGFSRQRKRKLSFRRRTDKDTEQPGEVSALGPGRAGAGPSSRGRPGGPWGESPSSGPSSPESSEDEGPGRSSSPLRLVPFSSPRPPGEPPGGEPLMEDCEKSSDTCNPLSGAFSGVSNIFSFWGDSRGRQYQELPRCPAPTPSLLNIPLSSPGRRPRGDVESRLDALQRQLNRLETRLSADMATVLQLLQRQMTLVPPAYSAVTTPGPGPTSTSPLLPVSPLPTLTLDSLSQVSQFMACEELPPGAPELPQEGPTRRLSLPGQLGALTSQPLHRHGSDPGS
# protocol description: hERG whole-cell patch-clamp in stably transfected CHO cells
# Type: cell-based
# condition description: estimated based on the IC50 value
# Procedure: The whole-cell patch-clamp technique was used to investigate the effects of the test items on hERG (human-ether-a-go-go related gene) potassium channels in stably transfected CHO cells near physiological temperature (36±1° C.). The effects of compounds on hERG K^+-current parameters were evaluated at 4 concentrations (0.3-3-30-300 μM) in at least 3 CHO cells stably expressing the hERG channel. […] If current density was judged to be too low for measurement, another cell was recorded. […]
# note: exactly 8 µM is not below, so it is n; use y for IC20 strictly under it

Request: Below 8 µM on IC20? Entry O=C(Nc1ccc([C@H]2CNCCO2)cc1)c1cncc(Cl)c1
Response: n

Request: Here's an entry: Cc1nc(C(=O)Nc2ccc([C@H]3CNCCO3)cc2)cs1 . Is its IC20 below 8 µM?
Response: n

Request: Hello, is IC20 of the following compound strictly smaller than 8 µM? O=C(Nc1ccc([C@H]2CNCCO2)cc1)c1ccc(OCC(F)(F)F)nc1
Response: y

Request: Does the reported IC20 of CCc1[nH]nc(C(=O)Nc2ccc([C@H]3CNCCO3)cc2)c1C stay below 8 µM?
Response: n

Request: Hello, is IC20 of the following compound strictly smaller than 8 µM? N#Cc1ccc(C(=O)Nc2ccc([C@H]3CNCCO3)cc2)cn1
Response: y

----------
# experimental system: human DAT (Homo sapiens (Human), UniProt Q01959)
# Sequence (Q01959 whole entry): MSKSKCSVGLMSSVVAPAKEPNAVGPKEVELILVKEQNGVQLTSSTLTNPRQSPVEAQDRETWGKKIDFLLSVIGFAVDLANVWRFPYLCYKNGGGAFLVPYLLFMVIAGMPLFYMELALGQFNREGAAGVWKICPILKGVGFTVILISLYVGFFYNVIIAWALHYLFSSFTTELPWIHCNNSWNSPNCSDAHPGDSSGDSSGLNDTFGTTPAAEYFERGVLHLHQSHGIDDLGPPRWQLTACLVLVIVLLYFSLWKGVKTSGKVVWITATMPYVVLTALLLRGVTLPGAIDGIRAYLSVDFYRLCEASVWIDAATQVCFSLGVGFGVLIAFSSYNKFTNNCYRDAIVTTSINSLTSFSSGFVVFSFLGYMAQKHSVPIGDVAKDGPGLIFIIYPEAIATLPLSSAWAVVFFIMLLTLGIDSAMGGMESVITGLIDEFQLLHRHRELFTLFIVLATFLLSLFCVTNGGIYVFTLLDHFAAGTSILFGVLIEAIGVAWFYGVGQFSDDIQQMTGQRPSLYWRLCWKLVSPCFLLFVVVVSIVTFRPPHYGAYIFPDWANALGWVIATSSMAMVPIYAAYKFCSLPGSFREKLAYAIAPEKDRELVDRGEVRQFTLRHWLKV
# protocol description: Binding to dopamine transporter (DAT) in vitro, [3H]-WIN35,428 SPA
Binary classification by Ratio DAT Ki/hTAAR1 EC50, with 20 as an inclusive lower bound for Yes; all other cases are No.

Request: Does Ratio DAT Ki/hTAAR1 EC50 meet or surpass 20 for O=C(Nc1ccc([C@H]2CNCCO2)cc1)c1ccnc(Cl)c1 [Example 5] ?
Response: Yes

Request: Dear colleague, could you confirm whether O=C(Nc1ccc([C@H]2CNCCO2)cc1)c1ccc(Cl)cn1 [Example 12] has Ratio DAT Ki/hTAAR1 EC50 at or above 20?
Response: No

Request: Does the molecule Cc1nc(C(=O)Nc2ccc([C@H]3CNCCO3)cc2)cs1 [Example 19] have recorded Ratio DAT Ki/hTAAR1 EC50 that is 20 or more?
Response: Yes

Request: # check: Ratio DAT Ki/hTAAR1 EC50 of Cc1cc(C(=O)Nc2ccc([C@H]3CNCCO3)cc2)ccn1 [Example 17] is greater than or equal to 20
Response: No

Request: Textbook exercise: given the entry O=C(Nc1ccc([C@H]2CNCCO2)cc1)c1coc(-c2ccccc2)n1 [Example 15] , state whether its Ratio DAT Ki/hTAAR1 EC50 is greater than or equal to 20.
Response: Yes

Request: Quick check: does O=C(Nc1ccc([C@H]2CNCCO2)cc1)c1ccc(Cl)nc1 [Example 4] have Ratio DAT Ki/hTAAR1 EC50 greater than or equal to 20?
Response: Yes

Request: // inclusive: Ratio DAT Ki/hTAAR1 EC50 at least 20? input: Cc1cc(C(=O)Nc2ccc([C@H]3CNCCO3)cc2)cc(Cl)n1 [Example 14]
Response: No

Request: Answer whether Ratio DAT Ki/hTAAR1 EC50 of O=C(Nc1ccc([C@H]2CNCCO2)cc1)c1ccc(OCC(F)(F)F)nc1 [Example 3] is greater than or equal to 20.
Response: Yes

----------
# experimental system: human DAT (Homo sapiens (Human))
# protocol description: Binding to dopamine transporter (DAT) in vitro, [3H]-WIN35,428 SPA
# condition description: [3H]-WIN35,428 radioligand; listed as example 1
parameter: Ki (µM)
Express it in µM; write the number only.

Request: Reported Ki for human DAT (Homo sapiens (Human)), given CCc1[nH]nc(C(=O)Nc2ccc([C@H]3CNCCO3)cc2)c1C [Example 1] ?
Response: 27.5

----------
# experimental system: UniProt:Q01959
# protocol description: Binding to dopamine transporter (DAT) in vitro, [3H]-WIN35,428 SPA
# condition description: DAT Ki / hTAAR1 EC50
parameter: DAT selectivity ratio versus hTAAR1 EC50 (fold)
Kindly provide the numeric value in fold only, without the unit symbol.

Request: For the record Cc1cc(C(=O)Nc2ccc([C@H]3CNCCO3)cc2)cc(Cl)n1 , what value of DAT selectivity ratio versus hTAAR1 EC50 is listed for UniProt:Q01959?
Response: 16

Request: Identify the measured DAT selectivity ratio versus hTAAR1 EC50 of Cc1cc(C(=O)Nc2ccc([C@H]3CNCCO3)cc2)ccn1 for UniProt:Q01959.
Response: 15

Request: DAT selectivity ratio versus hTAAR1 EC50 of O=C(Nc1ccc([C@H]2CNCCO2)cc1)c1cc(Cl)nc(Cl)c1 on UniProt:Q01959?
Response: 9

Request: Enter reported DAT selectivity ratio versus hTAAR1 EC50 observed with UniProt:Q01959 for O=C(Nc1ccc([C@H]2CNCCO2)cc1)c1cncc(Cl)c1
Response: 3

Request: Form entry - test system: UniProt:Q01959; read-out: DAT selectivity ratio versus hTAAR1 EC50; molecule: O=C(Nc1ccc([C@H]2CNCCO2)cc1)c1ccc(Cl)cn1
Response: 8

Request: Any idea what DAT selectivity ratio versus hTAAR1 EC50 came out for O=C(Nc1ccc([C@H]2CNCCO2)cc1)c1ccnc(Cl)c1 on UniProt:Q01959?
Response: 23

Request: Checklist item: DAT selectivity ratio versus hTAAR1 EC50 tested on UniProt:Q01959, entry O=C(Nc1ccc([C@H]2CNCCO2)cc1)c1ccc(Cl)nc1 , value?
Response: 40
